The compounds listed here are annotated with their pIC50.
target_or_system: cloned human NR1/NR2B ion channels (Homo sapiens (Human), UniProt Q05586+Q13224)
Sequence (Q13224 27-1484, other chains not shown): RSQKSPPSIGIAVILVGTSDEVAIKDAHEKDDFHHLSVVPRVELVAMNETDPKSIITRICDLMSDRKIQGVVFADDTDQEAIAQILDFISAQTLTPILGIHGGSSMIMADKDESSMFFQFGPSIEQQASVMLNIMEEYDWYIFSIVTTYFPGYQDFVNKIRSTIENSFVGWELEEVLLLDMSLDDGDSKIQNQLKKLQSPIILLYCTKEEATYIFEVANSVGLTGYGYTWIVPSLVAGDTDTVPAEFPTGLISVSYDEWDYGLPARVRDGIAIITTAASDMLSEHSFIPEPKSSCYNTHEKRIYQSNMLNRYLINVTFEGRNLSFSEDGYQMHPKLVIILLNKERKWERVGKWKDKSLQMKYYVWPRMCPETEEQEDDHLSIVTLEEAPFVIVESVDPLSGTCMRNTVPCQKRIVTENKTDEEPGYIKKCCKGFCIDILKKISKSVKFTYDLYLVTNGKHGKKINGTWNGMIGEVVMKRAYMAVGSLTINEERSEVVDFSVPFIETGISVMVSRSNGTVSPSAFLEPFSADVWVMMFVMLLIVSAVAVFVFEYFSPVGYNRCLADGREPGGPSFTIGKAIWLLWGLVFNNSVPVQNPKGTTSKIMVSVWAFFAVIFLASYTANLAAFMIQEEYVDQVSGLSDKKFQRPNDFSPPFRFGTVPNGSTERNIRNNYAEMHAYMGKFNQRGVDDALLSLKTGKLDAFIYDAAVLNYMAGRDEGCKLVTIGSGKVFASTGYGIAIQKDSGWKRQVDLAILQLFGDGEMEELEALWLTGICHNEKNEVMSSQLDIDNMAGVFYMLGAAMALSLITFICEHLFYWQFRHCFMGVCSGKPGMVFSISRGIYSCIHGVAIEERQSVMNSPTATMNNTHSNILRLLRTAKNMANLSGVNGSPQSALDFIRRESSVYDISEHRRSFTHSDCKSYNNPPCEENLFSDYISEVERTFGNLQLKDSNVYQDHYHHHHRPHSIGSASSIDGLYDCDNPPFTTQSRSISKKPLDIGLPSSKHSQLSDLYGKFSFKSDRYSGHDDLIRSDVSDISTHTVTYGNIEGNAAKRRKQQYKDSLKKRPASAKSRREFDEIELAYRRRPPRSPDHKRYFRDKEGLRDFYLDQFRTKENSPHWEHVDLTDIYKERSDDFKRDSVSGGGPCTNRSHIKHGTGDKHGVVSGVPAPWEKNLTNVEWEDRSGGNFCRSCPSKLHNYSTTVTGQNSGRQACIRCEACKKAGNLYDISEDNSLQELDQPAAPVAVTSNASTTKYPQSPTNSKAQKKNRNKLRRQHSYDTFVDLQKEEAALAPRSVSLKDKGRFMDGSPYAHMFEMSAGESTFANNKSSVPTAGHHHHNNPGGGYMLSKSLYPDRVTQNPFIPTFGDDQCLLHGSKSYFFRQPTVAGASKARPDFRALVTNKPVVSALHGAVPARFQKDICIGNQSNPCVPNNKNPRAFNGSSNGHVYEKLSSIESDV
test_name: HNR2BC: effects of test articles on cloned human NR1/NR2B ion channels expressed in mammalian cells (FLIPR calcium flux)
Format: cell-based
experimental_setup: cloned human NR1/NR2B ion channels, Table 5
Lab note — pIC50 values are minus log10 of concentrations in M.

Known results for compounds:
CN(C)C(=O)Cn1cc(Cl)c2ncc(-c3ccc(F)c(F)c3F)cc21 7.20
Cc1cccc(-c2cnc3c(C)cn(CC(=O)N4CCC4)c3c2)c1F 6.40
O=C(Cn1cc(F)c2ncc(-c3cccc(C(F)(F)F)c3F)cc21)N1CCC1 7.30
Cc1cn(CC(=O)N2CC(F)(F)C2)c2cc(-c3ccc(F)c(F)c3F)cnc12 7.30
CN(C)C(=O)Cn1cc(C(F)(F)F)c2ncc(-c3cc(F)cc(F)c3)cc21 8.00
CN(C)C(=O)Cn1cc(Cl)c2ncc(-c3cccc(C(F)(F)F)c3)cc21 7.10
CCN(C)C(=O)Cn1cc(C)c2ncc(-c3cccc(C(F)(F)F)c3F)cc21 6.60
CN(C)C(=O)Cn1cc(F)c2ncc(-c3cc(F)cc(F)c3)cc21 7.50

API: the following record is the query input.
Measured pIC50, Cc1ccc(-c2cnc3ccn(CC(=O)N4CCC4)c3c2)s1 : 8.00

###

target_or_system: cloned human NR1/NR2B ion channels (Homo sapiens (Human), UniProt Q05586+Q13224)
test_name: HNR2BC: effects of test articles on cloned human NR1/NR2B ion channels expressed in mammalian cells (FLIPR calcium flux)
Format: cell-based
experimental_setup: cloned human NR1/NR2B, Table 5
result_type: pIC50
The read-out pIC50 is expressed as -log10 of concentration in moles per litre.

O=C(Cn1ccc2ncc(-c3ccc(F)cc3)cc21)NCCO 7.10
O=C(Cn1ccc2ncc(-c3ccc(F)cc3)cc21)N1CCC1 7.50
O=C(Cn1cc(Cl)c2ncc(-c3ccc(F)c(C(F)(F)F)c3)cc21)N1CC(F)(F)C1 6.30
CC(C)C(=O)Cn1ccc2ncc(-c3cc(F)cc(F)c3)cc21 7.70

Considering O=C(Cn1ccc2ncc(-c3cc(Cl)cs3)cc21)N1CC(F)C1 , its pIC50 with cloned human NR1/NR2B ion channels (Homo sapiens (Human), UniProt Q05586+Q13224) was recorded as 6.80

###

target_or_system: cloned human NR1/NR2B ion channels (Homo sapiens (Human), UniProt Q05586+Q13224)
test_name: HNR2BC: effects of test articles on cloned human NR1/NR2B ion channels expressed in mammalian cells (FLIPR calcium flux)
Assay type: cell-based
experimental_setup: cloned human NR1/NR2B ion channels, Table 5
result_type: pIC50
Please note pIC50 is a logarithmic value: minus log10 of concentration in mol/L. Answer with that number alone.

Example entries and their recorded answers appear below.
O=C(Cn1cc(F)c2ncc(-c3cccc(Cl)c3)cc21)N1CCC1 7.40
O=C(Cn1cc(Cl)c2ncc(-c3cc(Cl)cs3)cc21)N1CC(F)C1 6.30
O=C(Cn1cc(F)c2ncc(-c3cccc(Cl)c3F)cc21)N1CCC1 7.60
CCN(C)C(=O)Cn1cc(C)c2ncc(-c3ccc(C)s3)cc21 6.60
Cc1c(F)ccc(-c2cnc3c(C)cn(CC(=O)N4CCC4)c3c2)c1F 6.80
CN(C)C(=O)Cn1ccc2ncc(-c3cc(F)c(F)c(F)c3)cc21 7.90

// field: pIC50; key: Cc1cn(CC(=O)N2CC(F)C2)c2cc(-c3cccc(C(F)(F)F)c3F)cnc12 ; value = 6.90

The compound listed as Cc1cn(CC(=O)N2CCCC2)c2cc(-c3ccc(F)c(F)c3)cnc12 shows pIC50 equal to 7.40

This collection of values is drawn from patent US10377753B2.
